- TARGET: T1, Human PD-L1-Fc (human, UniProt Q9NZQ7 19-238)
- T1 construct: also called dimeric PD-L1; PD-L1 (dimeric ligand); not shown: human IgG1 Fc constant region
- T1 sequence (Q9NZQ7 19-238 limits assumed): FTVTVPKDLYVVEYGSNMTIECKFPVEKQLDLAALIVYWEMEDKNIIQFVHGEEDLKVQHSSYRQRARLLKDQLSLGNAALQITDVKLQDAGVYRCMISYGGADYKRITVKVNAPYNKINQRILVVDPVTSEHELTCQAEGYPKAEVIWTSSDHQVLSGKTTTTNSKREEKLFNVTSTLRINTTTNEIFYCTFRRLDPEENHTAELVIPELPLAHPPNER
- EXPERIMENTAL_PROTOCOL: ForteBio, Fab, monovalent
pKd: −log10 of the molar value.

BINDER | pKd
BiPDL4-44 Fab (Fab, V domains shown, Fab made by papain digestion of the IgG) VH: QVQLVESGGGVIQPGRSLRLSCAASGFTFSAYLMHWVRQAPGKGLEWVAAIGYDGMNKYYADSVKGRFTISRDNSKNTLYLQMNSLRAEDTAVYYCARAGIEYSYAYTDYWGQGTLVTVSS VL: EIVLTQSPGTLSLSPGERATLSCRASHSVVSSYLAWYQQKPGQAPRLLIYGASSREDGIPDRFSGSGSGTDFTLTISRLEPEDFAVYYCVQFGWWPPRTFGGGTKVEIK | 8.22
BiPDL4-14 Fab (Fab, V domains shown, Fab made by papain digestion of the IgG) VH: QVQLVESGGGVVQPGRSLRLSCAASGFTFDEYGMHWVRQAPGKGLEWVAVIGYDGLNKYYADSVKGRFTISRDNSKNTLYLQMNSLRAEDTAVYYCARAGIEYSYAYTDYWGQGTLVTVSS VL: EIVLTQSPGTLSLSPGERATLSCRASQFVYSSDLAWYQQKPGQAPRLLIYGASTRKTGIPDRFSGSGSGTDFTLTISRLEPEDFAVYYCLQFGWWPPRTFGGGTKVEIK | 9.16
BiPDL4-24 Fab (Fab, V domains shown, Fab made by papain digestion of the IgG) VH: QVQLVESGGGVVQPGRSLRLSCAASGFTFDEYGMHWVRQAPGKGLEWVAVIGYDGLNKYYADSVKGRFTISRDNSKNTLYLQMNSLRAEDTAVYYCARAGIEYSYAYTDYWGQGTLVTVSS VL: EIVLTQSPGTLSLSPGERATLSCRASNSVVSSYLAWYQQKPGQAPRLLIYGAASRANGIPDRFSGSGSGTDFTLTISRLEPEDFAVYYCVQFGWWPPRTFGGGTKVEIK | 8.18
BiPDL4-34 Fab (Fab, V domains shown, Fab made by papain digestion of the IgG) VH: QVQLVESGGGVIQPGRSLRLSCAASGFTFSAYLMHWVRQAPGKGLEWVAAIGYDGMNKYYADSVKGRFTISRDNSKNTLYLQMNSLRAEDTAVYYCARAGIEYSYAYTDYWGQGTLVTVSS VL: EIVLTQSPGTLSLSPGERATLSCRASQFVYSSDLAWYQQKPGQAPRLLIYGASARAAGIPDRFSGSGSGTDFTLTISRLEPEDFAVYYCMQFGWWPPRTFGGGTKVEIK | 8.66
